Values from the nanobody polyreactivity screen of Harvey et al. (2022)

# Assay Notes: yeast display, Sf9 membrane polyspecificity reagent, FACS + sequencing; frameworks hold sequencing errors
Metric Name: polyreactivity (PSR sort gate)

Sequence Record: QVQLVESGGGLVQAGGSLRLSCAASGFIFPYYAMGWYRQAPGKERELVAAISSGGSTYYADSVKGRFTISRDNAKNSVYLQMNSLKPEDTAVYYCAVRITYWTGEFDYWGQGTQVTVSS
polyreactivity (PSR sort gate): high polyreactivity
--
Sequence Record: QVQLEESGGGLVQAGGSLRLSCAASGSIFYSYAMGWYRQAPGKERELVAAINWSGGSTYYADSVKGRFTISRDNAKNTFYFQMNSLKPQDTAVYYCAADYGWGPIYDYWGQGTQVNVSS
polyreactivity (PSR sort gate): low polyreactivity
--
Sequence Record: QVQLVESGGGLVQAGGSLRLSCAASGSTFTTNAMGWDRQAPGKERELVAAITWSVGSTYYADSVKGRFTISRDYAKNTVYLQMNSVKPEDNAVYYCAAYHPPGDTYEYWGQGTQVTVSS
polyreactivity (PSR sort gate): low polyreactivity
--
Sequence Record: QVQLVESGGGLVQAGGSLRLSCAASASTTYYAMGWYRQAPGKERELVAAISFSGGSTFYADSVKGRFTISRDNAKNTVYLQMNCLKPEDTGVYYCATQEGPHKLDPRGYYWGQGTQVTVSS
polyreactivity (PSR sort gate): low polyreactivity

API: the following record is the query input.
Would you kindly share the measured polyreactivity (PSR sort gate) for "QVQLVESGGGLVQAGGSLRLSCAASGSILGYYAMGWYRQAPGKERELVAITSGDSTYYADSVKGRFTISRDNAKNTVYLQMNSLKPEDTAVYYCNARYSWKYDYWGQGTQVTVSS" ? high polyreactivity

###

# Assay Notes: yeast display, Sf9 membrane polyspecificity reagent, FACS + sequencing; frameworks hold sequencing errors
Metric Name: polyreactivity (PSR sort gate)

Sequence Record: QVQLVESGGGLVQAGGSLRLSCAPSGFSFRQYAMGWYRQAPGKERELVAAISSSGGRTYYADSVKGRCTISRDNAKNTVYLQMNSLKPEDSAVYYCNARAWLRGEYGEGYWGQGTQVTVSS
polyreactivity (PSR sort gate): high polyreactivity
//
Sequence Record: QVQLVESGGGLVQAGGSLRLSCAASGRTFSFYAMGWYRQAPGKERELVAGIDWDDGSTSYADSVKGRFTISRDNAKNTVYLQMNSLKPEDTEVYYCAADIGYDVYNDYDYWGQGTQVTVSS
polyreactivity (PSR sort gate): low polyreactivity
//
Sequence Record: QVQLVESGGGLVQAGGSLRLSCAASGIIFASNAMGWYRQAPGKERELVAAISGSGGRTYYADSVKGRFTISRDTAKNTVYLQMNSLKPEDTAVYYCAAARANNYDYWGQGTQVTVSS
polyreactivity (PSR sort gate): high polyreactivity
//
Sequence Record: QVQLVESGGGLVQAGGSLRLSCAASGRPFPGNAMGWYRPAPGKERELVAAISSSGGSTHYADSGKGRFTISRDTAKNTVYLQMNSLKPEDTAVYYCNARSIGYSYRYYDWGQGTQVTVSS
polyreactivity (PSR sort gate): high polyreactivity
//
Sequence Record: QVQLVESGGGLVQAGGSLRLSCAASGRTFGQYAMGWYRQAPGKEREFVAAITSSGGSTYYADSVNGRFTISRDNAKNTVYLLMNSLNPEDTAVYYCAAPISRSAGWDSYDYWGQGTQVTVSS
polyreactivity (PSR sort gate): low polyreactivity

Reported polyreactivity (PSR sort gate) for "QVQLVESGGGLVQAVGSLRLICDASGSTFYKYSMGWYRQAPGKERELVAAITTSGTGTYYADSVKGRFTISRDNAKNTVYLEMNSLKPEDTGVYYCNARIVYRVGVSRMYYWGQGTQVTVSS" : what is it? high polyreactivity

Moving on to "QVQLVESGGGLVQAGGSLRLSCAASGSIFSAYAMGWYRQAPGKEREIVASITWSGGSTYYADSVKGRFTISRDNAKNTVYLQMNSLKPEDTAVYYCAAVYVTWYNNYEYWGQGTQVTVSS" high polyreactivity

And then "QVQLVESGGGLVQAGGSLRLSCAASGSIFLYYAMGWYRQAPGKERELVASISSGGSTNYADSVKGRFTISRDNAKNTVYLQMNSLKPEDTAVYYCAARPYGGGRRSIYYYWGQGTQVTVSS" , what is it? high polyreactivity

Then what about the sequence "QVQLVESGGGLVQAGGSLRLSCAASGRTFWKNTMGWYSQAPGKERELVAVISSGGVSTSYADSVTGRFTISRDKATNTVYLHMNSLKPEDTAVYYCAADGYYIGPYDYWGQGTQVTVSS" ? low polyreactivity

Next entry: "QVQLVDSGGGLVQAGGSLRLSCAASGRIFYRYAMGWYRQAPGKERELVATISRGGITNYADSVKGRFTISRDNAKNTVYLEMNSLKPEDTAVYYCNAVYGFRRLFEYEYDYWGQGTQVTVSS" high polyreactivity

Thanks! And "QVQLVESGGGLVHAGGSLRLSCAASGSTFYSYAMGGYRQAPGKERELVAAISRSGGRTYYADSVKGRFTISRDIAKNTVYLQMKSLKPEDTAVYYCNAVNSVTTSTRTRAKYAAYDSWGQGTQVTVSS" ? high polyreactivity

###

# Assay Notes: yeast display, Sf9 membrane polyspecificity reagent, FACS + sequencing; frameworks hold sequencing errors
Metric Name: polyreactivity (PSR sort gate)

Below, 6 sequences whose answers are already recorded.
Sequence Record: QVQLVESGGGLFQAGGRLRLSCAASGRIFWLYAMGWYRQAPGKERELVAAITGIGGSTYYADSVKGRFTISRDNAKNTVYLQMNSLKPEDTAVYYCAARSPATYPSMGYWGQGTQGTVSS
Result: low polyreactivity
--
Sequence Record: QVQLVESGGGLVQAGGSHRLSCAASGRIFSYNSMGWYRQAPGKERELVAAITSGGSTYYADSVKGRFTISRDNAKNTVYLQMNSLKPEDTAVYYCAVRSYYFVSRYTRTLYGFDYWGQGTQVTVSS
Result: low polyreactivity
--
Sequence Record: QVQLVESGGGLVQAGGSLRLSCAASGSTRRYAMGWYRQAPGKERELVAAISSRGGSTYYADSVKGRFTISRDNAKNTVYLQMNSLKPEDTAVYYCAARTTRGPTFGYWGQGTQVTVSS
Result: high polyreactivity
--
Sequence Record: QVQLVESGGGLVKAGASLRLSCAASGRTFRHNARGWYRQAPGKERELVAAITIGTNTYYADSVKGRFTISRDNAKNTVYLQMNSLKPEDTEVYYCAAVKDRYAYVPPRFDYWGQGSQVTVSS
Result: low polyreactivity
--
Sequence Record: QVQLVESGGGLVQAGGSLRLSCAASGRIVWSYGMGWYRQAPGKERELVAAITNTGDGTYYADSVKGRFTISRDNAKNTVYLQMNSLKPEDTAVYYCAVDYRGYWYWEYDYWGQGTQVTVSS
Result: high polyreactivity
--
Sequence Record: QVQLVESGGGLVQAGGSLRLSCAASGSILAAYAKGWYRQAPGKERELVAAISLDDGSTYYADSVKGRFTISRDNAKNTVYFQMNSLKPVDTAVYYCAADYYVRSQLLYATSGNYWGQGTQVTVTS
Result: high polyreactivity

Return reported polyreactivity (PSR sort gate); argument: "QVHLVESGGGLVQAGGSLRLSCAASGRIFYANARGWYRQAPGKERELVAAISQSGGSTFYADSVKGRFTISRDYAKNTVYLQMNSLKPEDTAVYYCATDYYGPVYDLDYDYWGQGTQVTVSS" low polyreactivity

Now consider "QVQLVESGGGLVQAGGSLRLSCAASGSTFYLYTMGWYIQAPGKERELVAAISPSGGSTRYADSVKGRFTISRDNAKNTVYLQMNSLKPEDTAVYYCAARSTVYPRPHERDYWGQGTQVTVSS" and answer again. high polyreactivity

###

# Assay Notes: yeast display, Sf9 membrane polyspecificity reagent, FACS + sequencing; frameworks hold sequencing errors
Metric Name: polyreactivity (PSR sort gate)

Sequence Record: QVQLVESGGGLVQAGGSLRLSCAASGSTFDGYTMGWYRQAPGKERELVAAISWRGTSTYYADSVKGRFTISRDNAKNTVYLQMNSLKPEDTAVYYCGAENWKPRVYWIYSGHHGYWGQGTQVTVSS
Metric Name: polyreactivity (PSR sort gate)
Result: low polyreactivity

Sequence Record: QVQLVESGGGLVQAGGSLRLSCAASGRTLSHYAMGWYRQAPGKERELVAAITRSGGSTYYADSVKGRFTISRDYAKNTVYLQMNSLKPEDTAVYYCNKTLYTTYDYWGQGTQVTVSS
Metric Name: polyreactivity (PSR sort gate)
Result: low polyreactivity

###

# Assay Notes: yeast display, Sf9 membrane polyspecificity reagent, FACS + sequencing; frameworks hold sequencing errors
Metric Name: polyreactivity (PSR sort gate)

Sequence Record: QVQLVESGGGLVQAGGSLRLSCAASGRTFGIYAMGWYRQAPGKERELVASISWSGGRTYYADSVKGRFTLSRDNAKNTVYLQMNSLKPEDTAVYYCAAYGVYYPRSWQYFDWYGYWGQGTQVTVSS
Result: high polyreactivity

Sequence Record: QVQLVESGGGLVQAGGSLRLSCAASGFTSVDNAMGWYRQAPGNERELVAAIDTSGARTYYADSVKGRFTISRDNAKHTVYLQMNSLKPEDTAVYYCATEYVYDDRLYSTYYYWGQGTQVTVSS
Result: high polyreactivity

Sequence Record: QVQLVESGGGLVQAGGSLRLSCAASGRTFKNYAMGSYRQAPGKERELVAAISWRSGSTNYADSVKGRCTISRDNAKNTVYLQMNSLKPEDTAVYYCARKRRISGWSQFTSYADFDYWGQGSQVTVSS
Result: low polyreactivity

Sequence Record: QVQLVESGGGLVQAGGSLRLSCAASGSIFVGNAMGWYRQAPGKEREFVASISWDGTTYYADSVKGRFTISRDNAKNTVYLQMNSLKPEDTAVYYCAADVSTYGAQATEGTDLEYDYWGQGTLVTVSS
Result: low polyreactivity

Sequence Record: QDQLVESGAGLVQAGGSLRLSCAASGRIFPGYAMGWYRQAPGKERELVAGITWRTARTYYADSVKGRFTISRDNAKNTVYLQMNSLKPEDTAVYYCAAKYARYGRHVIFDYWGQGTQVTVSS
Result: high polyreactivity

Bench note: what polyreactivity (PSR sort gate) did "QVQLVESGGGLVQAGGSLRLSCAASGRIFSYNTLMRWYRQAPGKERELVAAITFSSASTYYADSVKGRFTISRDNAKNTVYLQMNSLKPEDTAVYYCAAAIRSQSSKYYYWGQGTQVTVSS" show? low polyreactivity

Another sequence to look at: "QVQLVESGGGLVQAGGSLRLICAASGSTFAYNDMGWYRQAPGKERELVADIRSGGNTNYADSVKGRFTISRDNAKNTVYLQMNSLKPEDTAVYYCATDCYRIDVYHPDYRYDYWGQGTQVTVSS" low polyreactivity

Now the sequence "QVQLVESGGGLVQAGGSLRLSCAASGSIFHANAMGWYRQAPGKERELVAVISQGGGSTYYADSVKGRFTISRDNAKNTVYLQMNSLKPEDTAFYYCAAYYYYSAYGDDYWGQGTQVTVSS" high polyreactivity

Okay, and "QVQLVESGGGLVQAGGSLRLSCAASGSTFQTNAMGWYRQAPGKERELVAAINSGGGTNYADSVKGRFTISRDNAKNTVYLQMNSLKPEDTAVYYCATDVLPRKYVSDYPSGAYDYWGQGTQVTVSS" ? low polyreactivity

What do you get for "QVQVVESGGGLVQAGGSLRLSCAASGIIFKQNVMGRYIQAPGKERELVAAISRGGSTNYADSLKGRFTISRDNAKNTVYLQMNSLKPEDTEVYYCAARFVLRREYGYWGQGTQVTVSS" ? high polyreactivity

Likewise for "QVQLVESGAGLVQAGGSLRLSCAASGRIFLGNAMGWYRQAPGKERELVAAISRSGVTRYYADSVKGRFTISRYNGKNTVYLQMNSLKPEDTAVYYCAVERYDRFDHYYWVQGTQVTVSS" ? low polyreactivity
